Target: POLγ W748S + E1143G (Homo sapiens, UniProt P54098, E1143G/W748S)
Sequence (P54098 1-1239 W748S/E1143G): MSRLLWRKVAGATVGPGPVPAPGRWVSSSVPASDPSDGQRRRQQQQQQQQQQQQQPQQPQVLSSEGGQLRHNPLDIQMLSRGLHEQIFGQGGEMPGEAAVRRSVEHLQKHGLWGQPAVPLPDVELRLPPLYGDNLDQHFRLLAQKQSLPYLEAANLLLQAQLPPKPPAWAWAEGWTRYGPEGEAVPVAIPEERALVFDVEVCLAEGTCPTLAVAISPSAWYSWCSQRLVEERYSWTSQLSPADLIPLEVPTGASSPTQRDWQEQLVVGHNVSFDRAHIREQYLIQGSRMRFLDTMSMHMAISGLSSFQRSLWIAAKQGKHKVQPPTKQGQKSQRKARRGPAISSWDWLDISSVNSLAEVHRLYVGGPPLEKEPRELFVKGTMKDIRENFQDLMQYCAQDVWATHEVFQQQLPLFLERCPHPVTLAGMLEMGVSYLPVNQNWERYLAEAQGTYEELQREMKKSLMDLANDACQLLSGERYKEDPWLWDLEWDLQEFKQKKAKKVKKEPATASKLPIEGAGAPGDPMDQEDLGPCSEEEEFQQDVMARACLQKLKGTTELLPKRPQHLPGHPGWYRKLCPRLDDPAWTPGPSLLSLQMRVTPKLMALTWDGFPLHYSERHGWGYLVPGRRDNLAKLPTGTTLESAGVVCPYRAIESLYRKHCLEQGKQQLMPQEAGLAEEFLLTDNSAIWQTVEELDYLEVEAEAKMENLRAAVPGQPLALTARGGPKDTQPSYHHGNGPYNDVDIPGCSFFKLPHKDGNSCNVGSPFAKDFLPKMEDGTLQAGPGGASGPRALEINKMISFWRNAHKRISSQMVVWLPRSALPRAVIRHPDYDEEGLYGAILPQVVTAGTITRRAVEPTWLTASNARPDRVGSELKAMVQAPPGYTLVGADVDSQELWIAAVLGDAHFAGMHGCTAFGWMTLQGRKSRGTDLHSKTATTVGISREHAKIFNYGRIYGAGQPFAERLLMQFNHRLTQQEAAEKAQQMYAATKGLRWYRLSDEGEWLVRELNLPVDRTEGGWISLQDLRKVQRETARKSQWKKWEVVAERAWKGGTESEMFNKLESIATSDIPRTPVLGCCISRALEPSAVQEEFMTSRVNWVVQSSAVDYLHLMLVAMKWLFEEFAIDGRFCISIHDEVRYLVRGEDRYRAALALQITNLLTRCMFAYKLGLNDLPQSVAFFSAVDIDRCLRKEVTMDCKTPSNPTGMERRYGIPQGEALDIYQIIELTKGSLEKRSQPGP
Sequence (Q9UHN1 1-485 partner): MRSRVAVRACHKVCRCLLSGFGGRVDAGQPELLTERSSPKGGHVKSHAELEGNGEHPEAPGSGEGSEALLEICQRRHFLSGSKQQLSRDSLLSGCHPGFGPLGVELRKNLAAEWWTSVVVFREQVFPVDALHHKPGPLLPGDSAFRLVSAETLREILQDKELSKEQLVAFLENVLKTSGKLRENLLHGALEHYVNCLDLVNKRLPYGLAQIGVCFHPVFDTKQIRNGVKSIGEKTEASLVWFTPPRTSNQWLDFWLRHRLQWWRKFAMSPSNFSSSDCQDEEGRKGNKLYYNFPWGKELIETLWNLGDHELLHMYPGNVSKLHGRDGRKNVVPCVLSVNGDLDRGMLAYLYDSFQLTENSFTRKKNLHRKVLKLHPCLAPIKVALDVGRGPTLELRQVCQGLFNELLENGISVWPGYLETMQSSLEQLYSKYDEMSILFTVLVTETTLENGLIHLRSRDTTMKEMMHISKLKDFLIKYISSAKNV
Assay: DNA polymerization assay, W748S + E1143G mutant
Type: biochemical
Details: stimulation of polymerase activity, primed M13mp18 ssDNA, 37° C. 2 hours
Collected AC50 values appear next to each entry.
Record the value in µM, omitting the unit from your answer.

**Query** Reported AC50, molecule Cc1cc(S(=O)(=O)Nc2cccc(C(=O)N3CCC[C@H]3C(C)C)c2)c(C)cc1Cl : ____
**Result** 21

**Query** Reported AC50, molecule Cc1cc(S(=O)(=O)Nc2cccc(-c3ncc(C4CC4)s3)c2)c(C)cc1Cl : ____
**Result** 6

**Query** Reported AC50, molecule Cc1cc(S(=O)(=O)Nc2cccc(-c3cc[nH]n3)c2)c(C)cc1Cl : ____
**Result** 2
